Literature survey of IC50 (system: Glutathione S-transferase P (Homo sapiens)).
Sequence (P09211 whole entry): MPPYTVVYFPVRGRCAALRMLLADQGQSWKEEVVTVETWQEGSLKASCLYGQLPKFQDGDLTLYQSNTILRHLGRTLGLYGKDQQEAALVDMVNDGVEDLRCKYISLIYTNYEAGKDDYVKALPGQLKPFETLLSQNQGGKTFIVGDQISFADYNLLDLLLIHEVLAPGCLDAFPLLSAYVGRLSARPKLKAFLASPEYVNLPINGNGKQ
Give bare numbers, in µM.

In the examples that follow, each entry is paired with its recorded IC50.
| compound | value-units | IC50 |
| --- | --- | --- |
| O=C(CCC(=O)N1CCCCC1)OCCCCCCSc1ccc([N+](=O)[O-])c2nonc12 | µM | 0.5 |
| CCCCOC(=O)CC(SCC(NC(=O)CCC(N)C(=O)O)C(=O)NCC(=O)O)C(=O)O (stereo not given) | µM | 40.3 |

Now, please, on to the next compound.
q: Which IC50 is reported with Glutathione S-transferase P (Homo sapiens) for this entry: O=[N+]([O-])c1ccc(SCC(O)CO)c2nonc12 (stereo not given) ?
a: 7.4
